Hi! Just check whether melting point is below 50 °C. Below gives fulfilled, equal or above gives not fulfilled.

O=CNC1CCCCC1 : fulfilled
N#Cc1cccc(Cl)c1 : fulfilled
c1ccc(N2CN(c3ccccc3)CN(c3ccccc3)C2)cc1 : not fulfilled
FC(F)(F)C(F)(F)C(F)(F)c1cc(-c2ccccc2)[nH]n1 : not fulfilled
COc1ccc(-c2nnc3n2NC(c2ccccc2)S3)cc1 (stereo unspecified) : not fulfilled
CC(=O)n1c(C)cc2cc3cc(C)[nH]c3cc21 : not fulfilled
Cc1ccc(Nc2ccc([N+](=O)[O-])cc2N)cc1 : not fulfilled
COc1cc2c(cc1OC)C13CCN4CC5=CCOC6CC(=O)N2C1C6C5CC43 (stereo unspecified) : not fulfilled
COc1cc2c(cc1OC)C(=O)C(CC1CCN(Cc3ccccc3)CC1)C2 (stereo unspecified) : not fulfilled
O=C(O)C1CC2CCC1C2 (stereo unspecified) : fulfilled

Incoming: Consider the compound `O=C(Cl)c1cccc(Cl)c1Cl` . Is its melting point strictly less than 50 °C?
Outgoing: fulfilled

Incoming: Consider the compound `Cc1ccccc1NC(=S)C(=O)c1ccccc1` . Is its melting point strictly less than 50 °C?
Outgoing: not fulfilled

Incoming: Consider the compound `O=C(OCC(=O)N1CCC[C@H]1C(=O)O)c1ccccc1` . Is its melting point strictly less than 50 °C?
Outgoing: not fulfilled

Incoming: Consider the compound O=C(O)C(O)C(Cl)(Cl)Cl (stereo unspecified) . Is its melting point strictly less than 50 °C?
Outgoing: not fulfilled

Incoming: Consider the compound `C[Si](N[Si](C)(c1ccccc1)c1ccccc1)(c1ccccc1)c1ccccc1` . Is its melting point strictly less than 50 °C?
Outgoing: not fulfilled

Incoming: Consider the compound `N#C/C(=C\c1ccccc1Cl)c1nc(-c2cccs2)cs1` . Is its melting point strictly less than 50 °C?
Outgoing: not fulfilled

Incoming: Consider the compound `CC(C)CC#N` . Is its melting point strictly less than 50 °C?
Outgoing: fulfilled

Incoming: Consider the compound `FC(F)(F)c1nc(C(F)(F)F)nc(C(F)(F)F)n1` . Is its melting point strictly less than 50 °C?
Outgoing: fulfilled

Incoming: Consider the compound `CCOC(=O)c1cccc(N)c1` . Is its melting point strictly less than 50 °C?
Outgoing: fulfilled
